B1: scFv; the commonest letter at each place (parent)
chain 1: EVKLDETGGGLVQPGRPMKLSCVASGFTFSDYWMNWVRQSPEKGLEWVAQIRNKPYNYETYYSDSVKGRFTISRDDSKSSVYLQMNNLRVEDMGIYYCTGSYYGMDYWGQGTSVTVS
chain 2: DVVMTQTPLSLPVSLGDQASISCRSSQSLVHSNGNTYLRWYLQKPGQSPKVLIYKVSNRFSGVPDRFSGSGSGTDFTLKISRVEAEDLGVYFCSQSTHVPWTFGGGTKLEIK

Variants of: B1
Assay: Kd (Tite-Seq)
Settings: with fluorescein; format: scFv 4-4-20, heavy + light
pKd: −log10 of the molar value.
measure.name: pKd

Below, 5 variants whose answers are already recorded.
| sequence.change | pKd |
| --- | --- |
| chain 1 T28I W33K | ≤ 5.00 |
| chain 1 Y103K D106M | ≤ 5.00 |
| chain 1 Y103Q W108A | 6.15 |
| chain 1 Y32F M34L | 7.66 |
| chain 1 D106Q | 5.25 |

Now for the variant whose pKd we want.
Query: # query: pKd of entry chain 1 G100N D106N
Response: ≤ 5.00
